Test: qHTS of pediatric cancer cell lines to identify multiple opportunities for drug repurposing: Primary screen for MG 63 (6-TG R) cells (AID 1347105); note: nearly all actives have a fitted effect of over 50% in size
Conditions: MG 63 (6-TG R) viability, CellTiter-Glo, 48 h; series mostly up to 46 µM
Inconclusive results are not listed. The source made the active and inactive calls. Calls come from the whole dose curve; as a rule, active = well fitted cell-killing curve with a large enough effect; inconclusive = small, poorly fitted or top-dose-only effect; inactive = no such curve, though single readings can be large or run the other way.
Possible outcomes: active, inactive

* CNC(=O)c1cc(Oc2ccc(NC(=O)Nc3ccc(Cl)c(C(F)(F)F)c3)c(F)c2)ccn1 | active
* NC(N)=Nc1nc(CSCCC(N)=NS(N)(=O)=O)cs1 | inactive
* CN(C)S(=O)(=O)c1ccc2c(c1)C(=Cc1cc3c([nH]1)CCCC3)C(=O)N2 | inactive
* CCOC(=O)N1c2ccc(C(F)(F)F)cc2[C@@H](N(Cc2cc(C(F)(F)F)cc(C(F)(F)F)c2)C(=O)OC)C[C@H]1CC | inactive
* C[C@H]1COC2=C1C(=O)C(=O)c1c2ccc2c1CCCC2(C)C | inactive

====

Assay: Quantitative High-Throughput drug screen in 47 multiple myeloma cell lines against the NCATS MIPE library collection: MOLP8_DSMZ cell viability assay (AID 1918977); note: nearly all actives have a fitted effect of over 45% in size
Details: MOLP8 myeloma viability, CellTiter-Glo ATP luminescence, 48 h; series mostly up to 45.8 µM
Inconclusive results are not listed. Active and inactive are the calls of the source. Calls follow the shape of the dose curve; as a rule, active = well fitted cell-killing curve with a large enough effect; inconclusive = small, poorly fitted or top-dose-only effect, or effect the other way; inactive = no such curve, though single readings can be large or run the other way.
Possible outcomes: Y for active, N for inactive

- CCCCOCCOc1nc(-c2ccc(C(=O)O)c(F)c2)sc1C: N
- CC1(C)C(N(O)C(=O)Nc2ccc(Cl)cc2)N(c2ccc(Cl)cc2)C(=O)N1CC(=O)NN=CC=Cc1ccc([N+](=O)[O-])o1 (stereo unspecified): Y
- C#CCN(C)CC1=Cc2ccccc2Oc2ccccc21: N
- CN(C)CCOc1cc(-c2cn[nH]c2)ccc1NC(=O)C1COc2ccccc2O1 (stereo unspecified): N
- CS(=O)(=O)c1ccc(C2=C(c3ccccc3)C(=O)OC2)cc1: N
- CC(C)c1onc(-c2c(Cl)cccc2Cl)c1COc1ccc(C=Cc2cccc(C(=O)O)c2)c(Cl)c1: N

====

Listed here: items and their measured growth, % of control.
Assay: qHTS profiling of the MIPE4 collection as inhibitors of Plasmodium falciparum (HB3) proliferation (AID 743347);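 note: plate controls were DMSO vehicle wells for no effect and artemisinin wells for full effect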
Conditions: P. falciparum HB3 in erythrocytes, SYBR Green DNA, 72 h; at 28.5 µM (top of the series) unless noted
OBSERVED_PROPERTY: growth, % of control (%)

* Cn1c(=O)c(-c2c(Cl)cccc2Cl)cc2cnc(Nc3cccc(C(=O)O)c3)nc21 | 15.5
* COc1cc2c(cc1Cc1cccc(Cl)c1F)c(=O)c(C(=O)O)cn2[C@H](CO)C(C)C | 3.89
* FC(F)(F)c1ccc(C=Cc2nc(COc3ccc(CCCCn4ccnn4)cc3)co2)cc1 | 83.1
* CCOc1ccccc1N=Nc1c(C)[nH]n(-c2nc(-c3ccccc3)cs2)c1=O | 87.1
* COc1c(C)c2c(c(O)c1CC=C(C)CCC(=O)O)C(=O)OC2 | 7.33
* CCNC(=O)CCCC=CC[C@@H]1[C@H](C=CC(O)CCc2ccccc2)[C@@H](O)C[C@@H]1O (some centres undefined) | 74.9
* CCN(CCO)CCCOc1ccc2c(Nc3cc(CC(=O)Nc4cccc(F)c4)[nH]n3)ncnc2c1 | 6.77
* CCc1cc(-c2n[nH]c(C)c2-c2ccc3c(c2)OCCO3)c(O)cc1O | 39.1
* CC(C)CN(C[C@@H](O)[C@H](Cc1ccccc1)NC(=O)O[C@H]1CO[C@H]2OCC[C@H]21)S(=O)(=O)c1ccc(N)cc1 | 8.15

====

Experiment: qHTS of pediatric cancer cell lines to identify multiple opportunities for drug repurposing: Confirmatory screen for NB1643 cells (AID 1347109); note: nearly all actives have a fitted effect of over 45% in size
Conditions: NB1643 neuroblastoma cell viability; series mostly up to 45.9 µM
Experimental: Drug repurposing or repositioning has been offered as a strategy for drug development in oncology programs. […] [1] Shen, M et al. Quantitative high-throughput phenotypic screening of pediatric cancer cell lines identifies multiple opportunities for drug repurposing. […] Cells were assayed in growth media at a density of 500-1,000 cells/well. […] After a 15 min incubation at room temperature, samples were analyzed for luminescence intensity using a ViewLux High-throughput CCD imager equipped with clear filters.
Results filed as inconclusive are left out. Active and inactive are the calls of the source. Calls follow the shape of the dose curve; as a rule, active = well fitted cell-killing curve with a large enough effect; inconclusive = small, poorly fitted or top-dose-only effect, or effect the other way; inactive = no such curve, though single readings can be large or run the other way.
Possible outcomes: t for active, f for inactive

- C[C@@]1(c2cc(-c3cncnc3)c(F)cc2F)CCSC(N)=N1: t
- CC1(C)OC2CC3C4CC(F)C5=CC(=O)C=CC5(C)C4C(O)CC3(C)[C@]2(C(=O)CO)O1 (some centres undefined): f
- CC(C)C[C@@H](C(=O)N[C@H](C(=O)OC1CCCC1)c1ccccc1)[C@H](O)C(=O)NO: t
- CCOC(=O)[C@H](CCc1ccccc1)N[C@@H](C)C(=O)N1CCCC1C(=O)O (some centres undefined): t
- CC1C(=O)OC2C(O)C34C5CC(C(C)(C)C)C36C(OC(=O)C6O)OC4(C(=O)O5)C12O (centres undefined): f
- C=C1[C@H](n2cnc3c(=O)[nH]c(N)nc32)C[C@H](O)[C@H]1CO: f
- C[C@@]1(C(=O)Nc2ccc(F)nc2)CCCN1c1nc(Nc2cc(C3CC3)[nH]n2)c2cccn2n1: t
- CCC[C@H](N[C@@H](C)C(=O)N1[C@@H]2CCCC[C@H]2C[C@H]1C(=O)O)C(=O)OCC: f
- Cc1cc(CS(=O)(=O)c2ccccc2)cc(OCc2ccc(CN3CCC[C@H]3CO)cc2)c1: f

====

Assay: Quantitative High-Throughput drug screen in 47 multiple myeloma cell lines against the NCATS MIPE library collection: OPM1_PLB cell viability assay (AID 1918989); note: nearly all actives have a fitted effect of over 40% in size
Conditions: CellTiter-Glo, 48 h; series mostly up to 45.8 µM
Results filed as inconclusive are left out. Activity calls are given as the source filed them. Calls follow the shape of the dose curve; as a rule, active = well fitted cell-killing curve with a large enough effect; inconclusive = small, poorly fitted or top-dose-only effect, or effect the other way; inactive = no such curve, though single readings can be large or run the other way.
Possible outcomes: active, inactive

* CCN1CCN(c2ccc(Nc3cc(N(C)C(=O)Nc4c(Cl)c(OC)cc(OC)c4Cl)ncn3)cc2)CC1 | active
* CC1(COc2ccc3c(c2)ncn3-c2ccc3cccc(N4CCC(N)CC4)c3n2)COC1 | active
* FC(F)(F)c1ccc(C=Cc2nc(COc3ccc(CCCCn4ccnn4)cc3)co2)cc1 | active
* NC(N)=Nc1nc(CSCCC(N)=NS(N)(=O)=O)cs1 | active
* O=C(Nc1ncc(SCCN2CCCC2)s1)[C@]1(c2ccc(S(=O)(=O)C3CC3)cc2)C[C@@H]1C1CCCCC1 | active
* CCC=CC[C@H]1C(=O)CC[C@@H]1CC(=O)OC | inactive
* CC(C)c1onc(-c2c(Cl)cccc2Cl)c1COc1ccc(C=Cc2cccc(C(=O)O)c2)c(Cl)c1 | inactive
* Clc1ccc(C2(c3ccc(-c4cn[nH]c4)cc3)CCNCC2)cc1 | active
* Cc1ccccc1C(C(=O)NC1CCCCC1)N(C(=O)CNc1ccc(C#N)cc1)c1cccc(F)c1 (centres undefined) | inactive

====

Assay: Quantitative High-Throughput drug screen in 47 multiple myeloma cell lines against the NCATS MIPE library collection: KMS26_JCRB cell viability assay (AID 1918975); note: nearly all actives have a fitted effect of over 45% in size; note: potency is the fitted concentration of half-maximal effect
Conditions: KMS26 myeloma cells viability, CellTiter-Glo ATP, 48 h; series mostly up to 45.8 µM
Results filed as inconclusive are left out. Calls of active or inactive are those of the source. Calls follow the shape of the dose curve; as a rule, active = well fitted cell-killing curve with a large enough effect; inconclusive = small, poorly fitted or top-dose-only effect, or effect the other way; inactive = no such curve, though single readings can be large or run the other way.
OBSERVED_PROPERTY: Potency

- CC1=C(CC(=O)O)c2cc(F)ccc2C1=Cc1ccc(S(C)=O)cc1 (stereo not given): 2.09 µM (active)
- CC(C)C[C@@H](C(=O)N[C@H](C(=O)OC1CCCC1)c1ccccc1)[C@H](O)C(=O)NO: 18.7 µM (active)
- CO[C@H]1O[C@@H]2O[C@@]3(C)CC[C@@H]4[C@@H](C)CC[C@@H]([C@H]1C)[C@@]24OO3: inactive
- CC(C)CNc1ccnc(NCc2csc(-c3ccccc3)n2)n1: 16.6 µM (active)
- COc1cc(N2CCN(C)CC2)ccc1Nc1nc(N)c(C(=O)c2c(Cl)cccc2Cl)s1: 4.18 µM (active)
- COC1CCC(C(=O)c2ccc3nc4c(cc3c2)CCCO4)CC1 (stereo not given): 23.5 µM (active)
- CN[C@@H]1CN(c2ccc3c(=O)c(C(=O)O)cn(-c4nccs4)c3n2)C[C@@H]1OC: 18.2 µM (active)
- CC(C)c1c(C(=O)Nc2ccccc2)c(-c2ccccc2)c(-c2ccc(F)cc2)n1CC[C@H](O)C[C@@H](O)CC(=O)O: inactive
- CC(C)(C)c1nc(-c2cccc(NS(=O)(=O)c3c(F)cccc3F)c2F)c(-c2ccnc(N)n2)s1: inactive
- COc1ccc(CCC(=O)Nc2nc3ccc(Cl)cc3s2)cc1OC: inactive

====

Assay: qHTS of pediatric cancer cell lines to identify multiple opportunities for drug repurposing: Confirmatory screen for Rh41 cells (AID 1347123);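 note: 48 h compound exposure; nearly all actives have a fitted effect of over 60% in size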
Details: Rh41 rhabdomyosarcoma cells, viability/cytotoxicity qHTS; series mostly up to 45.9 µM
Inconclusive results are not listed. The source made the active and inactive calls. Calls come from the whole dose curve; as a rule, active = well fitted cell-killing curve with a large enough effect; inconclusive = small, poorly fitted or top-dose-only effect; inactive = no such curve, though single readings can be large or run the other way.
Possible outcomes: class 1 for active, class 0 for inactive

* CC1(COc2ccc3c(c2)ncn3-c2ccc3cccc(N4CCC(N)CC4)c3n2)COC1 | class 1
* N#CC(=C1Nc2ccccc2S1)c1ccnc(OCc2ccc(CN3CCOCC3)cc2)n1 | class 0
* COc1ccc(-c2ccc3ncc4c(c3c2)n(-c2ccc(N3CCNCC3)c(C(F)(F)F)c2)c(=O)n4C)cn1 | class 1
* C=CC(=O)Nc1cccc(Sc2nc(Nc3ccc(N4CCN(C)CC4)cc3)ncc2Cl)c1 | class 1
* CN(C)CCN(C)C(=O)c1ccc(NC(=O)Nc2ccc(-c3nc(N4CCOCC4)c4ccn(CC(F)(F)F)c4n3)cc2)cc1 | class 1
* CN1CCN(c2ncc(-c3cc(Cl)cc(Cl)c3Cl)c(N)n2)CC1 | class 0

// data source = PubChem BioAssay (NCATS)
